# System: C. elegans
# Experimental Details: microbe, parasite or virus in culture
# Conditions: Caenorhabditis elegans, 24 h, read-out: Percentage of motility inhibition 24 h, Table S2, C. elegans SS assay, 110 μM, 24 h, averages of 4 data points
Parameter: inhibition at 110 µM. Scope: all listed entries.
Answer in %, number only, no unit symbol.

Before answering, review these 3 worked examples.
{"columns": ["Record Smiles", "Units Symbol", "inhibition at 110 µM"],
 "data": [
  ["O=C(N[C@H](CO)[C@H](O)c1ccc([N+](=O)[O-])cc1)C(Cl)Cl", "%", 2],
  ["C=C(C)[C@H](CC=C(C)C)Cc1c(O)cc(OC)c2c1O[C@H](c1ccc(O)cc1O)CC2=O", "%", 0],
  ["COC[C@@]12CC[C@H](OC)[C@]34C(C([C@H](OC)[C@H]13)[C@]1(OC(C)=O)[C@H]3[C@@H](OC(=O)c5ccccc5)[C@](O)(C[C@H]34)[C@@H](OC)[C@@H]1O)N(C)C2", "%", 6]
]}

Could you now look at the following molecule, please?
Input O=c1cccc2n1C[C@H]1C[C@@H]2CN2CCCC[C@H]12 . Output inhibition at 110 µM: 6

* * *

# System: C. elegans
# Conditions: Table S2, C. elegans SS assay, 110 μM, 0 h, averages of 4 data points
Parameter: Percentage of motility inhibition 0 h. Scope: all listed entries.
Answer in %, number only, no unit symbol.

Input CCc1c2c(nc3ccc(OC(=O)N4CCC(N5CCCCC5)CC4)cc13)-c1cc3c(c(=O)n1C2)COC(=O)[C@]3(O)CC.Cl [Irinotecan (hydrochloride)] . Output Percentage of motility inhibition 0 h: 0

Input COc1ccc(-c2cc(=O)c3c(O)c(OC)c(OC)cc3o2)cc1OC . Output Percentage of motility inhibition 0 h: 2

Input COc1cc(-c2coc3c([C@@H]4O[C@H](CO)[C@@H](O)[C@H](O)[C@H]4O)c(O)ccc3c2=O)ccc1O . Output Percentage of motility inhibition 0 h: 11

* * *

Parameter: inhibition at 110 µM. Scope: all listed entries.
# Test system: C. elegans
# Experimental Details: microbe, parasite or virus in culture
# Conditions: Caenorhabditis elegans, 24 h, read-out: Percentage of motility inhibition 24 h, Table S2, C. elegans SS assay, 110 μM, 24 h, averages of 4 data points
Answer in %, number only, no unit symbol.

{"columns": ["Compound", "inhibition at 110 µM / %"],
 "data": [
  ["CC(C)=CCC[C@](C)(O)[C@H]1CC[C@]2(C)[C@@H]1[C@H](O)C[C@@H]1[C@@]3(C)CC[C@H](O)C(C)(C)[C@@H]3[C@@H](O[C@@H]3O[C@H](CO)[C@@H](O)[C@H](O)[C@H]3O)C[C@]12C [Ginsenoside Rh1]", 9]
]}

Input O=C(O)c1cn(C2CC2)c2cc(N3CCNCC3)c(F)cc2c1=O . Output inhibition at 110 µM: 2

Input CC(=O)Oc1ccccc1C(=O)Nc1ncc([N+](=O)[O-])s1 [Nitazoxanide] . Output inhibition at 110 µM: 49

* * *

# Tested on: C. elegans
# Experimental Details: microbe, parasite or virus in culture
# Conditions: Caenorhabditis elegans, 24 h, read-out: Percentage of motility inhibition 24 h, Table S2, C. elegans SS assay, 110 μM, 24 h, averages of 4 data points
Parameter: inhibition at 110 µM. Scope: all listed entries.
Answer in %, number only, no unit symbol.

{"columns": ["Molecule", "Units Symbol", "Numeric Result"],
 "data": [
  ["C/C=C1/[C@H](O[C@@H]2O[C@H](CO)[C@@H](O)[C@H](O)[C@H]2O)OC=C(C(=O)OC)[C@H]1CC(=O)OCCc1ccc(O)c(O)c1 [Oleuropein]", "%", 0],
  ["CN1Cc2c(ccc3c2OCO3)-c2ccc3cc4c(cc3c21)OCO4 [Dihydrosanguinarine]", "%", 0],
  ["CC1=C(C/C=C(\\C)CCC[C@H](C)CCC[C@H](C)CCCC(C)C)C(=O)c2ccccc2C1=O [Vitamin K1]", "%", 13],
  ["COC1=C[C@]23CCCN2CCc2cc4c(cc2[C@@H]3[C@@H]1O)OCO4 [Cephalotaxine]", "%", 0],
  ["C[C@@H]1O[C@@H](O[C@H]2[C@H](Oc3cc(O)c4c(=O)cc(-c5ccc(O)c(O)c5)oc4c3)O[C@H](CO)[C@@H](O)[C@@H]2O)[C@H](O)[C@H](O)[C@H]1O [Lonicerin]", "%", 2],
  ["C=CC(C)(O)CCC=C(C)CCC=C(C)C (mixture of isomers) [Nerolidol]", "%", 7]
]}

Could you now look at the following molecule, please?
Input Oc1cc(O)c2c(c1)O[C@@H](c1ccc(O)c(O)c1)[C@H](O)C2 [(‐)‐Catechin] . Output inhibition at 110 µM: 9

* * *

# Test system: C. elegans
# Experimental Details: microbe, parasite or virus in culture
# Conditions: Caenorhabditis elegans, 0 h, read-out: Percentage of motility inhibition 0 h, Table S2, C. elegans SS assay, 110 μM, 0 h, averages of 4 data points
Readout Name: inhibition at 110 µM (%)
Answer in %, number only, no unit symbol.

Before answering, review these 3 worked examples.
{"columns": ["Compound", "inhibition at 110 µM [%]"],
 "data": [
  ["Cc1ccc2[nH]c3ccccc3c2c1", 0],
  ["OC[C@@H](O)[C@@H](O)[C@H](O)[C@@H](O)CO", 0],
  ["CCN1C[C@]2(COC)CC[C@H](O)[C@]34C1[C@@](O)([C@@H](OC)[C@H]23)[C@@]1(O)C[C@H](OC)[C@H]2C[C@@H]4[C@@H]1[C@H]2OC", 5]
]}

Could you now look at the following compound, please?
Input O=C1c2c(O)cc(O)cc2O[C@H](c2ccc(O)cc2)[C@H]1O [Dihydrokaempferol] . Output inhibition at 110 µM: 2

* * *

# Test system: C. elegans
# Experimental Details: microbe, parasite or virus in culture
# Conditions: Caenorhabditis elegans, 24 h, read-out: Percentage of motility inhibition 24 h, Table S2, C. elegans SS assay, 110 μM, 24 h, averages of 4 data points
Values of inhibition at 110 µM greater than or equal to 10% map to 1.0; values below map to 0.0.

Please review the entries below; each comes with its answer.
{"columns": ["Molecule", "Assigned Category"],
 "data": [
  ["C/C=C(/C)C(=O)O[C@H]1[C@H](OC(C)=O)[C@]2(CO)[C@H](O)C[C@]3(C)C(=CC[C@@H]4[C@@]5(C)CC[C@H](O[C@@H]6O[C@H](C(=O)O)[C@@H](O[C@@H]7O[C@H](CO)[C@@H](O)[C@H](O)[C@H]7O)[C@H](O)[C@H]6O[C@@H]6O[C@H](CO)[C@@H](O)[C@H](O)[C@H]6O)[C@](C)(CO)[C@@H]5CC[C@]43C)[C@@H]2CC1(C)C", 0.0],
  ["CCCCC(C#N)(Cn1cncn1)c1ccc(Cl)cc1 (stereo not drawn)", 1.0],
  ["O=C1C=CC[C@@H]2[C@H]3CCCN4CCC[C@@H](CN12)[C@@H]34", 0.0],
  ["Cc1cccc(C)c1OCC(=O)N[C@@H](Cc1ccccc1)[C@@H](O)C[C@H](Cc1ccccc1)NC(=O)[C@H](C(C)C)N1CCCNC1=O", 1.0]
]}

Test whether the molecule CC1(C)CC[C@]2(C(=O)O[C@@H]3O[C@H](CO)[C@@H](O)[C@H](O)[C@H]3O)CC[C@]3(C)C(=CC[C@@H]4[C@@]5(C)CC[C@H](O[C@@H]6O[C@H](C(=O)O)[C@@H](O)[C@H](O)[C@H]6O)C(C)(C)[C@@H]5CC[C@]43C)[C@@H]2C1 records inhibition at 110 µM of 10% or higher.
1.0

Test whether the molecule CC(C)=CCC/C(C)=C/Cc1c(O)c(CC=C(C)C)c2c(c1O)C(=O)C1=C[C@@H]3C[C@H]4C(C)(C)O[C@@](C/C=C(/C)C(=O)O)(C3=O)[C@@]14O2 records inhibition at 110 µM of 10% or higher.
0.0

* * *

Parameter: inhibition at 110 µM. Scope: all listed entries.
# Test system: C. elegans
# Experimental Details: microbe, parasite or virus in culture
# Conditions: Caenorhabditis elegans, 0 h, read-out: Percentage of motility inhibition 0 h, Table S2, C. elegans SS assay, 110 μM, 0 h, averages of 4 data points
Answer in %, number only, no unit symbol.

Before answering, review these 8 worked examples.
{"columns": ["Compound", "Numeric Result"],
 "data": [
  ["C[C@@H]1CC[C@]2(C(=O)O)CC[C@]3(C)C(=CC[C@@H]4[C@@]5(C)CC[C@H](O)[C@@](C)(CO)[C@@H]5CC[C@]43C)[C@@H]2[C@]1(C)O", 24],
  ["O=C(Nc1ccc(O)cc1)c1ccccc1O", 48],
  ["C[C@@H]1[C@H]2c3cc4c(cc3O[C@@]35OCOC3=CC(=O)[C@H](C[C@H]1C)[C@@H]25)OCO4", 18],
  ["C[C@H]1[C@H](C)CC[C@]2(CO)CC[C@]3(C)C(=CC[C@@H]4[C@@]5(C)CC[C@H](O)C(C)(C)[C@@H]5CC[C@]43C)[C@H]12", 19],
  ["O=c1[nH]cnc2c1ncn2[C@H]1CC[C@@H](CO)O1", 22],
  ["O=c1c(O[C@@H]2O[C@H](CO)[C@@H](O)[C@H](O)[C@H]2O)c(-c2ccc(O)cc2)oc2cc(O)cc(O)c12", 1],
  ["C[C@@H](c1nc(-c2ccc(C#N)cc2)cs1)[C@](O)(Cn1cncn1)c1cc(F)ccc1F", 25],
  ["CCS(=O)(=O)CCn1c([N+](=O)[O-])cnc1C", 25]
]}

Input C[C@H]1C(=O)O[C@@H]2CC[N+]3([O-])CC=C(COC(=O)[C@](C)(O)[C@]1(C)O)[C@H]23 (stereo partly shown) [Monocrotaline N‐Oxide] . Output inhibition at 110 µM: 0

Input O=C(O)c1cccnc1C(=O)O . Output inhibition at 110 µM: 0

Origin of the recorded values: paper PMC11855827
